Data provenance is ChEMBL document CHEMBL1142722.

Catalogue of remaining at 0.5 h readings, one per entry.
Test: Percentage of remaining compound after 30 min incubation in rat liver microsomes was determined as metabolic stability
Format: ADME, Microsome
Details: read-out: Remaining compound
Answer format: numeric, % implied, no suffix.

Recorded results for 4 molecules are shown here.
[
  {
    "Molecule": "CC(C)CN(C[C@@H](O)[C@H](Cc1ccccc1)NC(=O)O[C@H]1CO[C@H]2OCC[C@H]21)S(=O)(=O)c1ccc(N)cc1 (stereo in doubt; form 2)",
    "Units Text": "%",
    "Readout Number": 92
  },
  {
    "Molecule": "CC(C)CN(C[C@@H](O)[C@H](Cc1ccccc1)NC(=O)O[C@H]1CCOC1)S(=O)(=O)c1ccc(N)cc1",
    "Units Text": "%",
    "Readout Number": 83
  },
  {
    "Molecule": "CC(C)(C)NC(=O)[C@@H]1CN(Cc2cccnc2)CCN1C[C@@H](O)C[C@@H](Cc1ccccc1)C(=O)N[C@H]1c2ccccc2C[C@H]1O",
    "Units Text": "%",
    "Readout Number": 97
  },
  {
    "Molecule": "COc1ccc(S(=O)(=O)N(CC(C)C)C[C@@H](O)[C@H](Cc2ccccc2)NC(=O)O[C@H]2CO[C@H]3OCC[C@H]32)cc1",
    "Units Text": "%",
    "Readout Number": 25
  }
]

Now for the molecule whose remaining at 0.5 h we want.
What remaining at 0.5 h value was documented for this molecule, CC(C)CN(C[C@@H](O)[C@H](Cc1ccccc1)NC(=O)O[C@H]1CO[C@H]2OCC[C@H]21)S(=O)(=O)c1ccc2c(c1)OCO2 ?
21

---

Catalogue of half-life readings, one per entry.
Assay: Half-life in dog after 80 mg/kg oral administration
Assay type: ADME, organism-based, Canis lupus familiaris
Design: dose 80 mg/kg, route oral
Conditions: in vivo
Answer format: numeric, h implied, no suffix.

Recorded results for 2 compounds are shown here.
[
  {
    "Compound": "CC(C)CN(C[C@@H](O)[C@H](Cc1ccccc1)NC(=O)O[C@H]1CO[C@H]2OCC[C@H]21)S(=O)(=O)c1ccc(N)cc1 (stereo in doubt; form 2)",
    "half-life (h)": 0.781
  },
  {
    "Compound": "CC(C)CN(C[C@@H](O)[C@H](Cc1ccccc1)NC(=O)O[C@H]1CO[C@H]2OCC[C@H]21)S(=O)(=O)c1ccc2c(c1)OCO2",
    "half-life (h)": 2.06
  }
]

Now for the compound whose half-life we want.
What half-life value was documented for this compound, COc1ccc(S(=O)(=O)N(CC(C)C)C[C@@H](O)[C@H](Cc2ccccc2)NC(=O)O[C@H]2CO[C@H]3OCC[C@H]32)cc1 ?
1.47

---

System: Human immunodeficiency virus 1
Assay: Effective concentration against PI-Resistant HIV strain (M3)
Type: functional, organism-based
Settings: Human immunodeficiency virus 1
Measure Name: EC50 (nM)
Answer format: numeric, nM implied, no suffix.

[
  {
    "Compound Smiles": "CC(C)CN(C[C@@H](O)[C@H](Cc1ccccc1)NC(=O)O[C@H]1CCOC1)S(=O)(=O)c1ccc(N)cc1",
    "Readout Number": 195
  },
  {
    "Compound Smiles": "COc1ccc(S(=O)(=O)N(CC(C)C)C[C@@H](O)[C@H](Cc2ccccc2)NC(=O)O[C@H]2CO[C@H]3OCC[C@H]32)cc1",
    "Readout Number": 2.24
  },
  {
    "Compound Smiles": "CC(C)CN(C[C@@H](O)[C@H](Cc1ccccc1)NC(=O)O[C@H]1CO[C@H]2OCC[C@H]21)S(=O)(=O)c1ccc(CN)cc1",
    "Readout Number": 6.03
  },
  {
    "Compound Smiles": "CC(=O)c1ccc(S(=O)(=O)N(CC(C)C)C[C@@H](O)[C@H](Cc2ccccc2)NC(=O)O[C@H]2CO[C@H]3OCC[C@H]32)cc1",
    "Readout Number": 6.03
  }
]

Now for the molecule whose EC50 we want.
What EC50 value was documented for this molecule, CC(C)CN(C[C@@H](O)[C@H](Cc1ccccc1)NC(=O)O[C@@H]1CO[C@@H]2OCC[C@@H]21)S(=O)(=O)c1ccc(N)cc1 ?
21.4
